ASSAY_OVERVIEW: Approximate solubility by visual observation at 25° C.
Assay type: physicochemical
CONDITION_DESCRIPTION: organic solvent or mixture, thermodynamic from solid, Ethyl acetate
ATTRIBUTE_MEASURED: solubility

I have this compound here, COc1ccc([C@@]23CCC(=O)C[C@@H]2N(C)CC3)cc1OC [(−) mesembrine] , and I need its recorded solubility.
125 to 250 mg/mL

====

ASSAY_OVERVIEW: Approximate solubility by visual observation at 25° C.
Type: physicochemical
CONDITION_DESCRIPTION: organic solvent or mixture, thermodynamic from solid, Ethanol
ATTRIBUTE_MEASURED: solubility

I have this molecule here, COc1ccc([C@@]23CCC(=O)C[C@@H]2N(C)CC3)cc1OC [(−) mesembrine] , and I need its recorded solubility.
125 to 250 mg/mL
